System: NMDA induced convulsions in mice
measurement.description: inhibition of NMDA induced convulsions in mice
Assay type: in vivo
conditions.used: Mus musculus, dose to protect 50 % of the animals from NMDA (intracerebroventricular) convulsions, intravenous, read-out: ED50 i.v
Excerpt: In this test the ability of the compound to inhibit the generalized seizures induced by an intracerebroventricular injection of NMDA in mice was examined at a number of dose levels. […] This expressed as mg/kg is referred to as the ED50 value.
Where a name gives a salt, the structure may show the parent alone.
measured.attribute: ED50
Respond with a number, then the unit of measure.

>  <compound>
O=C([O-])c1[nH]c2cc(Cl)cc(Cl)c2c1/C=C1\CCN(c2ccccc2)C1=O.[Na+] [Example 3]

>  <ED50>
0.08 mg/kg

$$$$
>  <compound>
Nc1ccc(N2NC/C(=C\c3c(C(=O)O)[nH]c4cc(Cl)cc(Cl)c34)C2=O)cc1 [Example 10, hydrochloride salt]

>  <ED50>
0.1 mg/kg

$$$$
>  <compound>
O=C(O)c1[nH]c2cc(Cl)cc(Cl)c2c1/C=C1\CNN(c2ccccc2)C1=O [Example 8, sodium salt]

>  <ED50>
0.1 mg/kg

$$$$

Moving on to another compound below.
Lab book: ED50 of O=C(O)c1[nH]c2cc(Cl)cc(Cl)c2c1/C=C1\CCCN(c2ccccc2)C1=O [Example 6, sodium salt] noted as 0.09 mg/kg

* * *

study.system: strychnine insensitive glycine binding site (NMDA receptor complex) (Rattus norvegicus)
Construct: from tissue
measurement.description: affinity for strychnine insensitive glycine binding site
measured.attribute: pKi
Keep in mind that pKi stands for -log10 of concentration in molar terms.

Query O=C([O-])c1[nH]c2cc(Cl)cc(Cl)c2c1/C=C1\CCN(c2ccccc2)C1=O.[Na+] [Example 3, sodium salt] yields pKi of 7.29
